Origin of the recorded values: ChEMBL document CHEMBL2321697

- testedTarget: Muscarinic acetylcholine receptor M3 (Rattus norvegicus, UniProt P08483)
- Sequence (P08483 whole entry): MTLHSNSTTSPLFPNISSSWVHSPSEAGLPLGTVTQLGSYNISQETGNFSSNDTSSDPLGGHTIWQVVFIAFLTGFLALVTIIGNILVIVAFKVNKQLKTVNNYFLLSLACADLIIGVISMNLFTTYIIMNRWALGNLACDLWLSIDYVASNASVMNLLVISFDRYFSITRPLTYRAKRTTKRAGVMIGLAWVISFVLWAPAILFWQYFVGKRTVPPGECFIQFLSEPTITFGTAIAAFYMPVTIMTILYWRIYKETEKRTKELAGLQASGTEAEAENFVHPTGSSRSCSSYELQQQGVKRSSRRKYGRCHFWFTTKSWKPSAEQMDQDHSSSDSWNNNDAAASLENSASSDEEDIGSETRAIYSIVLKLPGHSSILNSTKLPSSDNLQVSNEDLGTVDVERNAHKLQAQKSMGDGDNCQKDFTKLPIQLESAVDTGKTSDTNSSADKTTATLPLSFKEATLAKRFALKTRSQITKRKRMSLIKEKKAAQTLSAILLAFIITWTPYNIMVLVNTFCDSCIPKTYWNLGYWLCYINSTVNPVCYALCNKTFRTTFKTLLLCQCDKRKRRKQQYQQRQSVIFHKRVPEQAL
Answer each item with its documented pKi.
Answers are plain numbers, as −log10 of the molar value.

Parameters: items (list). Returns: pKi for each item.
1. CC(=O)O[C@@H]1C[C@@H]2C[C@H](OC(=O)c3ccccc3[N+](=O)[O-])C[C@@H]1N2C
2. CC(=O)O[C@@H]1C[C@@H]2C[C@H](OC(=O)c3ccccc3)C[C@@H]1N2C
3. CC(=O)O[C@H]1C[C@@H]2C[C@@H](OC(=O)c3ccccc3[N+](=O)[O-])C[C@@H]1N2C
4. CC(=O)O[C@H]1C[C@@H]2C[C@@H](OC(=O)c3ccccc3)C[C@@H]1N2C

4.18
4.15
5.43
5.57
